experimental_system: Aminopeptidase N (Plasmodium falciparum FcB1/Columbia)
Sequence (O96935 whole entry): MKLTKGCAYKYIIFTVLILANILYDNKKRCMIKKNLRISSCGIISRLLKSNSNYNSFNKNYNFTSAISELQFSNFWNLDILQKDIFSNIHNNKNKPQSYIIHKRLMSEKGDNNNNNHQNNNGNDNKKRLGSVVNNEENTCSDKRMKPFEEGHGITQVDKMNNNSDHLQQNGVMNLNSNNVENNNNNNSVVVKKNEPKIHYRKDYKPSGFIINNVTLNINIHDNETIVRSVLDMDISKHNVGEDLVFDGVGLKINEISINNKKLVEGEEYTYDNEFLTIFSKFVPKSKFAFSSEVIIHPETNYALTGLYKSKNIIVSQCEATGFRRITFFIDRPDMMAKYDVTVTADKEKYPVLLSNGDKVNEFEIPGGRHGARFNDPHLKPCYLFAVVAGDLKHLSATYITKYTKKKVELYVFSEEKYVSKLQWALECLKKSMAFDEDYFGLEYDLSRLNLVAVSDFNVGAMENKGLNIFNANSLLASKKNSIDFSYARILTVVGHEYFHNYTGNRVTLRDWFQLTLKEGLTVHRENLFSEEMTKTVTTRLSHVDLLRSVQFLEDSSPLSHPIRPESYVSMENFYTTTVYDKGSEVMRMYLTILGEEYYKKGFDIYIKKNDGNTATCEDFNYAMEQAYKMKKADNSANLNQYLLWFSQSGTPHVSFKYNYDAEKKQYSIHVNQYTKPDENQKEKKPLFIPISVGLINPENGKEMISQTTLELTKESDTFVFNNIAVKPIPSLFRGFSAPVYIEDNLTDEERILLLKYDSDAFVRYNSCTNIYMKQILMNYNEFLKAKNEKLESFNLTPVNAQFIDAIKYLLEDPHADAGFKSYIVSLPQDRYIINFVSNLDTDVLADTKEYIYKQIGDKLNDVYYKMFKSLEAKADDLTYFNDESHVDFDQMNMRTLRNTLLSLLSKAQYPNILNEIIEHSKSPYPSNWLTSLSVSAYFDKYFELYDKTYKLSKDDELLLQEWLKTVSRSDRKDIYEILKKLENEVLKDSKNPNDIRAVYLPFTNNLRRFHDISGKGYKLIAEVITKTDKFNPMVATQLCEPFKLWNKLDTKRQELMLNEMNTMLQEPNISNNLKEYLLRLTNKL
experiment_summary: P. falciparum M1AAP inhibitors, biochemical, fluorogenic H-Leu-NHMec substrate, 1536-well (AID 1445)
Set-up: species or system Plasmodium falciparum 3D7, 3D7
The source made the active and inactive calls.
reported_metric: IC50

Consider the worked cases shown below.
| smiles_repr | reported_metric | assay_value |
| --- | --- | --- |
| CC(=O)c1ccc(-c2cccs2)s1 | IC50 | 40 µM (active) |
| Cc1ccc(C(=O)Nc2scc(-c3ccccc3)c2C(=O)O)o1 | IC50 | 68.4 µM (active) |
| N#Cc1c(NC(=O)c2ccc(Br)o2)n(-c2ccccc2)c2nc3ccccc3nc12 | IC50 | 22.9 µM (active) |

Give a short answer stating reported IC50 for `CC(C)N1C(=O)S/C(=C/c2ccccc2OCc2ccc(C(=O)O)cc2)C1=O` .
38.1 µM (active)

Give the reported IC50 for this compound. `C/C(=N\NC(=O)c1cccc(Cl)c1)C1C(=O)c2ccccc2C1=O`
40.8 µM (active)

---

Item-by-item account of AC50
experimental_system: Caspase-6 (Homo sapiens, UniProt P55212)
experiment_summary: human caspase-6 inhibitors, dose response, biochemical, VEID-R110 fluorescence, cherry-pick (AID 720632)
The source made the active and inactive calls.

Known AC50 results, listed for orientation:
| smiles_repr | assay_value |
| --- | --- |
| COc1cc(N(C(C)=O)c2ccc(O)c(C(=O)O)c2)c2ncccc2c1 | 3.48 µM (active) |
| O=C(Nc1ccccc1F)c1coc(=O)c(Br)c1 | 23.8 µM (active) |
| C[C@H](O)[C@@H]1C(=O)N2CCc3c([nH]c4ccccc34)[C@@H]2C[C@@H]1N(C)C(=O)Nc1cccc2ccccc12 | 35.9 µM (active) |
| CC[C@H](CO)Oc1cc(NCc2cccc(N)c2)c2ncn(C(C)C)c2c1 | 1.58 µM (active) |

Give the reported AC50 for this molecule. `Oc1cc(NCCc2cccnc2)cc2cccnc12`
2.89 µM (active)

Supply reported AC50 belonging to this molecule: `CCCCNS(=O)(=O)c1cc(-c2nn(C)c(=O)c3ccccc23)ccc1C`
21.3 µM (active)

---

# AC50 listing for each entry below
experimental_system: UniProtKB P43351
Sequence (P43351 whole entry): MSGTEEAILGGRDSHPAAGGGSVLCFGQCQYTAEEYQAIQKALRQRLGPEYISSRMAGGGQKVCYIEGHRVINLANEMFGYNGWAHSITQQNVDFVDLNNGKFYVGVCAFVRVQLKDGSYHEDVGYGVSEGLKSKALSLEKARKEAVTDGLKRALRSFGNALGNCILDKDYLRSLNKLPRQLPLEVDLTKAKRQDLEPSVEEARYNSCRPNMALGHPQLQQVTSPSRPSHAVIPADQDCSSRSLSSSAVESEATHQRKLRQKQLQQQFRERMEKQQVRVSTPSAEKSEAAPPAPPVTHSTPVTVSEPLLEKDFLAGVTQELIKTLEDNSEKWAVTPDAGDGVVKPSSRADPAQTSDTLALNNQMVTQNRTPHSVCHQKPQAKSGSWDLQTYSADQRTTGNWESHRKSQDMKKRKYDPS
Assay type: functional, biochemical
The source made the active and inactive calls.

Please review the entries below; each comes with its answer.
| compound | experimental_system | AC50 |
| --- | --- | --- |
| CCCCCCCCCCOC(=O)Cn1c(COc2ccccc2)[n+](C)c2ccccc21 | UniProtKB P43351 | 12.5 µM (active) |
| CN(C)CCCN(C(=O)c1ccc(C(=O)c2ccccc2)cc1)c1nc2cc3c(cc2s1)OCCO3 | UniProtKB P43351 | 14.7 µM (active) |
| CCN1CCN(CCCNC(=O)C2CCN(c3nnc(-n4c(C)ccc4C)s3)CC2)CC1 | UniProtKB P43351 | 9.22 µM (active) |
| CCN(CC)CCNc1nc(-c2cccs2)c(CC(=O)O)s1 | UniProtKB P43351 | 14 µM (active) |
| COc1ccccc1C1c2ccc3ccccc3c2Oc2ncn(CCN(C)C)c(=N)c21 (configuration not stated) | UniProtKB P43351 | 20.6 µM (active) |

Return the recorded AC50 value; entry: NC1(C(=O)O)CCCc2ccc(N(CCCl)CCCl)cc21 (configuration not stated)
16 µM (active)

Read the entry `CCOC(=O)c1c(-c2ccc(-c3ccccc3)cc2)csc1NC(=O)CNCCN(C)C` and write its reported AC50.
5.29 µM (active)

---

The compounds listed here are annotated with their EC50.
experiment_summary: inhibitors of SNCA 5'UTR-driven reporter translation, confirmation, H4 neuroglioma cells, luminescence (AID 1988)
Assay type: functional, cell-based
The source made the active and inactive calls.

Recorded EC50, per entry:
| smiles_repr | EC50 |
| --- | --- |
| CCOc1c(Br)cc(CNc2ccc3c(c2)OCCO3)cc1OC | 0.31 µM (active) |
| COC(=O)c1c(NC(=O)c2ccc([N+](=O)[O-])o2)sc2c1CCN(C(C)C)C2 | < 0.1 µM (active) |
| CCOC(=O)c1c(-c2ccc(-c3ccccc3)cc2)csc1NC(=O)CNCCN(C)C | 9.16 µM (active) |
| COc1cc(NC(=O)NCCN2CCN(c3ccc(Cl)cc3)CC2)ccc1C | > 120 µM (not active) |
| O=C(OCc1ccccc1Cl)c1cc([N+](=O)[O-])ccc1N1CCOCC1 | 36.1 µM (active) |
| Cc1cccc(CS(=O)(=O)c2ncc(Cl)c(C(=O)Nc3ccc(F)cc3)n2)c1 | 12.4 µM (active) |
| Cn1nc([N+](=O)[O-])nc1Sc1nnc(-c2ccccc2)o1 | 10.2 µM (active) |
| CCN(CC(=O)NCc1ccc(F)cc1)C(=O)/C=C/c1ccc(OC)c(S(=O)(=O)NC(C)C)c1 | 9.81 µM (active) |
| CC1CCN(c2ccccc2NC(=S)NC(=O)C(C)(C)C)CC1 | > 120 µM (not active) |
| O=C(c1cc(-n2cnnc2)ccc1Cl)N1CCN(c2nc(-c3ccccc3)cs2)CC1 | > 120 µM (not active) |

Specify measured EC50 for `COc1ccc(-c2oc3cc(OC)c(O)c(OC)c3c(=O)c2OC)cc1O` .
13.6 µM (active)

---

experimental_system: Corticotropin-releasing factor receptor 2/Corticotropin-releasing factor-binding protein (Homo sapiens, UniProt P24387+Q13324)
Sequence (Q13324 whole entry): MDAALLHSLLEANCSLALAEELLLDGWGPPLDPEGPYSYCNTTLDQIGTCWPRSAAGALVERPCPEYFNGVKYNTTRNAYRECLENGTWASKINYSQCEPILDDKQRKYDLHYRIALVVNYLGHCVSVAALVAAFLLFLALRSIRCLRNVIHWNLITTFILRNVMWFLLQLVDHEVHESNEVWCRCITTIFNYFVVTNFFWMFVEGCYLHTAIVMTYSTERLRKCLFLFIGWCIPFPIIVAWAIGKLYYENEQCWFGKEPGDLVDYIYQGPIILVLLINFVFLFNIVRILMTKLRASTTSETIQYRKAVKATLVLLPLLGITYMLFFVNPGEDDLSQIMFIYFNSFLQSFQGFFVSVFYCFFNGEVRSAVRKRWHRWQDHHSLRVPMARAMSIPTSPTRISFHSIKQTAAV
Sequence (P24387 whole entry): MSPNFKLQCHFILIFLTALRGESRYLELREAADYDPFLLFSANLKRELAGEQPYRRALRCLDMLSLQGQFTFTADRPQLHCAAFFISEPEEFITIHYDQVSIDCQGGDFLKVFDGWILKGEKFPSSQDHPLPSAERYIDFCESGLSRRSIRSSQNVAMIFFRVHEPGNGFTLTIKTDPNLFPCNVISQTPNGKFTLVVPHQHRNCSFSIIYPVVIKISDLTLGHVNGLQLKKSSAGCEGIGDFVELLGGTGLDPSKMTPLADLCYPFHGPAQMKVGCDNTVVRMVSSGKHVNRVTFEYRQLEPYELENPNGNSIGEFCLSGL
experiment_summary: activators of CRF receptor 2 with binding protein – uHTS hits, confirmation (AID 602473)
Assay type: functional
measurement_context: read-out: EC50_Mean
Activity calls are given as the source filed them.
Can you answer with just one of these options? active, inactive

Worked examples follow.
| compound | discrete_label |
| --- | --- |
| CC(=O)c1ccc(-c2cccs2)s1 | inactive |
| O=C(Nc1cccn(Cc2c(Cl)cccc2Cl)c1=O)c1c(Cl)cccc1Cl | inactive |
| COc1ccc(C2(C)NC(=O)N(CC(=O)c3cc(C)n(C4CC4)c3C)C2=O)cc1 (stereo unspecified) | active |
| Cn1c(=O)n(C)c2cc(S(=O)(=O)Nc3cc(Cl)ccc3O)ccc21 | inactive |
| COC(=O)c1ccc(CNC(=O)COC(=O)CC23CC4CC(CC(Br)(C4)C2)C3)cc1 | inactive |
| CCOc1ccc(S(=O)(=O)Nc2nc3ccccc3nc2Nc2ccc(N3CCOCC3)cc2)cc1 | inactive |
| COc1ccc(N2C(=O)CSC2c2ccc([N+](=O)[O-])cc2)cc1 (stereo unspecified) | inactive |
| COc1cc([N+](=O)[O-])ccc1-c1ccc(/C=N/NC(=O)OC(C)(C)C)o1 | active |
| Cc1nc2c(C(=O)NCCc3ccccc3)cnn2c(O)c1Cl | inactive |
| CCOC(=O)C(Cc1ccccc1)NC(=O)CCc1nnc2ccc(N3CCCC3)nn12 (stereo unspecified) | inactive |

Please indicate how the test categorized `O=C(NNC(=S)NC(=O)c1ccccc1Cl)c1cccc([N+](=O)[O-])c1` .
active

# lookup: test call for `c1ccc2c(c1)OCCOCCOCCOCCOCCOc1ccccc1OCCOCCOCCO2`
active

How was `c1ccc(Oc2cccc(OCCCCSc3ncccn3)c2)cc1` classified in this test?
inactive

---

experimental_system: Luciferin 4-monooxygenase (Photinus pyralis, UniProt P08659)
Sequence (P08659 whole entry): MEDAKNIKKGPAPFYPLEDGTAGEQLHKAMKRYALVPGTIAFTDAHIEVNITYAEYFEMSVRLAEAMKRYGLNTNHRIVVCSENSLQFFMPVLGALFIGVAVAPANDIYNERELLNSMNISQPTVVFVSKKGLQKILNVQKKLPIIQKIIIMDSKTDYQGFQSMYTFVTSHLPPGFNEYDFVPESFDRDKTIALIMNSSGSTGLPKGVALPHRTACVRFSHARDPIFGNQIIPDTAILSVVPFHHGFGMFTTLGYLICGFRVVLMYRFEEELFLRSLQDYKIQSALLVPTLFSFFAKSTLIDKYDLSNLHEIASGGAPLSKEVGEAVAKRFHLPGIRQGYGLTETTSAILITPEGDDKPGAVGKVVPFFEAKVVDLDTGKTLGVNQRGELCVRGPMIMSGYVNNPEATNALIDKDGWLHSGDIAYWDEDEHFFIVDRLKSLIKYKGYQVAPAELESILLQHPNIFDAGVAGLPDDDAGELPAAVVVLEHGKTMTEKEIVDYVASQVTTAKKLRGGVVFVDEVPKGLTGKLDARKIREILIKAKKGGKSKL
experiment_summary: firefly luciferase enzyme inhibitors, dose response, biochemical, luminescence (AID 1891)
Activity calls are given as the source filed them.
Each record here notes measured EC50.

| compound | EC50 |
| --- | --- |
| COc1ccc(-c2nc(C[S+]([O-])CC(=O)NCCc3ccc(C)cc3)c(C)o2)cc1OC (configuration not stated) | > 112 µM (not active) |
| CN(Cc1ccccc1)c1ccc(S(=O)(=O)N2CCOCC2)cn1 | > 112 µM (not active) |
| Cc1ccc(-c2nc(C[S+]([O-])CC(=O)NCCCN3CC(C)CC(C)C3)c(C)o2)cc1 (configuration not stated) | > 112 µM (not active) |
| COC(=O)c1sccc1NC(=O)Nc1cccc(C)c1 | 0.21 µM (active) |
| c1ccc2nc(-c3nc4ccccc4[nH]3)ccc2c1 | 0.49 µM (active) |
| CCOc1ccc(N2C(=O)S/C(=C\c3cccn3C)C2=O)cc1 | > 112 µM (not active) |

Please look at the following compound next.
# return recorded EC50 for entry `Cc1ccsc1/C=N/Nc1nc(O)nnc1C`
0.519 µM (active)
